The reported measurements were obtained from the supplement of paper PMC12636033.

System: 2Sp-muMax20 (muMax20 with two 2,6-bis(methyl)pyridine Cys staples)
test.details: PBM 8-mer E-score (E-score (rank enrichment, -0.5 to 0.5)); higher = stronger preferential binding
Whole data set: some 33,000 sequences, median “E-score (rank enrichment, -0.5 to 0.5)” near -0.0043, cut for the highest 2% near 0.24. Shown is part of a subset that was picked to be rich in the highest values.
Could you please classify the records by PBM 8-mer E-score using these ranges: bottom bin (below 0.02), middle bin (0.02 to below 0.2), top bin (0.2 or more)

* ATTGAGGC | middle bin
* CCAATAAA | top bin
* GTTGATTA | top bin
* CACGCGAG | top bin
* ATGGCATC | middle bin
* CGTCGGCA | bottom bin
* CACGCGAC | top bin
* GCACATCC | middle bin
* GTCCCCAC | middle bin
* ATTTTGTA | top bin
* CTCCCCAG | middle bin
* TAGCCCAA | middle bin
* CGAGGAAC | bottom bin
* ACAATACC | top bin
* ACAATAAA | top bin
* AATTTATC | middle bin
* AGACCGCG | middle bin
* CTGCATGC | middle bin
* CTCCCCCA | bottom bin
* CACATTCG | bottom bin
* GCCTGCAA | bottom bin
* GTTTTATA | middle bin
* AGCACCAG | bottom bin
* GTCCTGCA | bottom bin
* ATGTGTTG | top bin
* ACAATACA | middle bin
* CCGCCCCA | top bin
* ACCTCTCT | bottom bin
* ATGCATGG | middle bin
* CTGCATAC | middle bin
* ATCCCAAA | middle bin
* ATGCATTC | top bin
* CTAACCAA | bottom bin
* ACTAGAAC | middle bin
* CGTGTGTA | top bin
* ACAATAAT | top bin
* CACGTGTC | top bin
* ACCGCCCG | bottom bin
* GGTGTGTA | middle bin
* GACGCGAC | bottom bin
* CGCTTATA | middle bin
* CATTTATA | middle bin
* GTCCAAAA | bottom bin
* TTCCCCAA | middle bin
* ATGCATAA | middle bin
* ACGCCCCG | bottom bin
* ATTTTGTG | middle bin
* CTTGATTA | middle bin
* ACCTGCCA | bottom bin
* CGCGTGTC | middle bin
* AAAGTACC | middle bin
* CTCAGGTC | bottom bin
* AACGCGAC | middle bin
* TCAACCGA | bottom bin
* ATGCATTG | middle bin
* CCATAATC | middle bin
* CTAGAGTC | bottom bin
* AATCGATA | middle bin
* AGCTTATC | middle bin
* CCGCCGCC | bottom bin
* CCATCCCG | bottom bin
* CTGCATTC | bottom bin
* TAGCCCCA | top bin
* GCTGATTA | top bin
* ACGAAAAG | middle bin
* GTCGCGAA | bottom bin
* ACATAGGA | middle bin
* CGACATGC | middle bin
* ACGCCCCA | top bin
* TATCGATA | top bin
* CTCCCCAA | top bin
* CGACAATA | middle bin
* ACTCACTG | bottom bin
* ATCCCCCA | bottom bin
* AGCACCGC | bottom bin
* TAAATAAA | middle bin
* ATTCTCAC | middle bin
* ATCCCCTC | top bin
* CGCGTGTA | top bin
* ACAATAAC | middle bin
* GATCGATA | middle bin
* CTCCCCAC | top bin
* CTTTACGA | bottom bin
* ATTTTATA | top bin
* CCGCCCCG | top bin
* ACGCCCCC | bottom bin
* TAGCGCTA | bottom bin
* ACAGTGGC | bottom bin
* CAACTCGA | bottom bin

====

Listing of entries alongside the reported PBM 8-mer E-score.
System: 2Sp-muMax20 (muMax20 with two 2,6-bis(methyl)pyridine Cys staples)
test.details: PBM 8-mer E-score (E-score (rank enrichment, -0.5 to 0.5)); higher = stronger preferential binding
In all, about 33,000 sequences were measured (“E-score (rank enrichment, -0.5 to 0.5)”: median about -0.0043, highest 2% from about 0.24 on). Many of the other results were omitted from the sample, so the highest values are more common in it than they were.
parameter: PBM 8-mer E-score

* ATGGGGTA | 0.239
* GTGGGGAA | 0.277
* CCCGTGCG | -0.119
* GACGTGCC | -0.0934
* CATGAACA | -0.0306
* CACGTGCA | 0.419
* GATGTATA | 0.107
* AACGTGCC | 0.0275
* TGGGGAAA | 0.306
* CTGGGGAA | -0.125
* AACGTGCA | 0.149
* AATGTATA | 0.269
* AATGTAAT | 0.189
* GCTTGTCA | -0.15
* CGCGTGCC | 0.0851
* TACGTGCA | 0.105
* GGCGTGCA | 0.11
* AACGTGCG | 0.129
* ATGGGGCG | 0.25
* CCGGCGGC | -0.269
* AGGATCAC | 0.0434
* AACATAGG | 0.0986

====

Test system: 2Sp-muMax20 (muMax20 with two 2,6-bis(methyl)pyridine Cys staples)
test.details: PBM 8-mer E-score (E-score (rank enrichment, -0.5 to 0.5)); higher = stronger preferential binding
In all, about 33,000 sequences were measured (“E-score (rank enrichment, -0.5 to 0.5)”: median about -0.0043, highest 2% from about 0.24 on). Many of the other results were omitted from the sample, so the highest values are more common in it than they were.
Please use Y whenever PBM 8-mer E-score is not below 0.2, and N whenever it is.

• AAATCCCT = N
• TATTAACA = Y
• ATCCTCGG = N
• ATAATTAT = Y
• ATTGGGCC = N
• AAAATTAA = N
• AGGTCTCC = N
• CCTTATGC = N
• GTAATTAA = N
• AGACATAG = N
• ATAACGTC = N
• ATAACACA = Y
• ATGTTTTA = N
• CTAAGGTC = N
• ATAAGGAA = N
• ATAACACG = Y
• ATCGGGAA = N
• ATAATTAC = Y
• ATAACTTA = N
• AAAATTAT = Y
• CCCGCCCC = Y
• AATTGGGC = N
• CGCGTGAG = Y
• ATTTGGGA = N
• ATCACGGA = N
• ATTGGGGC = Y
• CTAACACA = N
• ATAACTTG = Y
• GCTTACGA = N
• AGCCCGTA = N
• GACGACTA = N
• ATACATAT = Y
• CGTTGAAC = N
• CTAATTAA = N
• CGCCAGCA = N
• GTAATTAC = N
• CGCGTGAC = Y
• AGCGTGAC = N
• ATAACGTA = N
• GGCACCAA = N
• AGCTGTGG = N
• AATTTGGG = Y
• ATAACAGG = N
• ATAAGGTC = Y
• TTAATTAA = Y

====

// values below are reported PBM 8-mer E-score
Test system: 2Sp-muMax20 (muMax20 with two 2,6-bis(methyl)pyridine Cys staples)
test.details: PBM 8-mer E-score (E-score (rank enrichment, -0.5 to 0.5)); higher = stronger preferential binding
The full ranking holds about 33,000 sequences; the median of “E-score (rank enrichment, -0.5 to 0.5)” is about -0.0043, and the highest 2% start at about 0.24. This excerpt belongs to a sample that is enriched for the highest values.
parameter: PBM 8-mer E-score

* CATATATA | 0.277
* ACCGGTAG | -0.253
* CCACAGCA | 0.0663
* ATTACCCA | 0.288
* GGTGAAAA | -0.00809
* GCCAGTCC | -0.152
* AGTAACAA | 0.113
* AGTAACAT | 0.294
* GAAAGTCA | -0.0504
* CTATTCTA | 0.227
* AAGATATA | 0.259
* AGATATAC | 0.146
* ATTACCCG | -0.0469
* ACTGAGAT | 0.0783
* AGATATAT | 0.252
* AGTAATAC | -0.0935
* ATTACCCC | 0.169
* CCGAAACG | -0.122
* CCAGCTTA | -0.129
* AAGATATC | 0.211
* AGTAACAG | 0.09
* GCTTTGCA | -0.0268
* ATGGTGCG | -0.0695
* AAATTCTT | 0.0344
* CAACTATA | 0.203
* CTGAACAA | -0.00871
* GGCCTTAA | 0.0324
* AGTAATAA | 0.0744
* AGCGTGCG | 0.178
* AGTAATGG | 0.122
* ACGATCGC | 0.0237
* TATATAGA | 0.166
* AGTCGGGC | -0.144
* CCGATCGC | 0.00661
* CATATAGG | 0.145
* GAGTCTAC | -0.125
* AGATATAG | 0.174
* AAGGATAT | 0.0821
* CGTAATAG | 0.118
* AGTAATAG | 0.254
* CGGTGGAA | -0.19
* TAACTATA | 0.255
* CGGTTCGA | -0.0332
* GATATATA | 0.204
* AATAGTAA | 0.238
* TATATATA | 0.315
